Measured melting point of individual entries

Prompt: Reported melting point, compound Cc1nc(C)c(Cl)c(NCc2nccc(OCCOCCSCCO)c2C)n1 [Compound 35] : ____
Completion: 114 to 116 °C

Prompt: Reported melting point, compound Cc1nc(C)c(Cl)c(NCc2nccc(SCCCCSCCn3c([N+](=O)[O-])cnc3C)c2C)n1 [Compound 19] : ____
Completion: 142 to 144 °C

Prompt: Reported melting point, compound Cc1nc(C)c(Cl)c(NCc2nccc(OCCCSCc3ccncc3)c2C)n1 [Compound 34] : ____
Completion: 111 to 113 °C

Prompt: Reported melting point, compound Cc1nc(C)c(Cl)c(NCc2nccc(OCCOCCSCc3ccncc3)c2C)n1 [Compound 29] : ____
Completion: 103 to 105 °C

Prompt: Reported melting point, compound Cc1c(OCCSCc2ccncc2)ccnc1CNc1ncncc1Cl [Compound 54] : ____
Completion: 119 to 121 °C
